- target-under-test: Alpha-2C adrenergic receptor (Homo sapiens) (UniProt P18825)
- Sequence (P18825 whole entry, looked up): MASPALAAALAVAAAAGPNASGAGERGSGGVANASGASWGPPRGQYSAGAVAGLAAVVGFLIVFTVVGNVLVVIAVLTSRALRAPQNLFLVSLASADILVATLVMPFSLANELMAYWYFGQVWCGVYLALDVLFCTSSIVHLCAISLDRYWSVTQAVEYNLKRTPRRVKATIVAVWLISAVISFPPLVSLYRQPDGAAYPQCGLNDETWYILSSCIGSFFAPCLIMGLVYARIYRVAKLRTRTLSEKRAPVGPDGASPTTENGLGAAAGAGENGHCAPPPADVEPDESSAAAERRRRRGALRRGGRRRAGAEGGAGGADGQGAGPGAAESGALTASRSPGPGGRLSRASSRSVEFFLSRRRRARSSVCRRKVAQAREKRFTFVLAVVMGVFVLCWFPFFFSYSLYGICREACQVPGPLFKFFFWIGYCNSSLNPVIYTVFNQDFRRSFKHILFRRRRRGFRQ
- assay-comment: modulators of alpha2C/GIRK thallium flux, primary screen, cell-based, HEK293 alpha2C/GIRK1/2 (AID 624);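 note: slope of fluorescence ratio to pre-addition baseline per second over 15 to 24 s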
- test-context: thallium flux BTC fluorescence, at 10 µM, actives lie on both sides
Hi, to clarify the labels: y covers slope from 0.005 upward, n covers anything below 0.005.

Solved entries:
CCOc1ccccc1N1CCN(c2nc3ccccc3nc2C(C#N)C(=O)OC(C)C)CC1 (centres undefined) = n
CCCC(=O)Nc1sc2c(c1C#N)CCCC2 = y
CC(C)Cc1nc(N2CCN(C(=O)c3ccco3)CC2)c(C#N)c2c1CCC2 = n
COC(=O)c1sc(NC(C)=O)c(C(=O)OC)c1C = y

Input line: Hello, I need to know if `Clc1ccc(Cl)c(-c2ccc(/C=N/c3ncn[nH]3)o2)c1` has measured slope not below 0.005. Thanks!
Output line: y

Input line: Tell me whether slope is at least 0.005 here: `CCOc1cccc(-c2nnc3sc(-c4ccco4)nn23)c1`
Output line: y

Input line: Is reported slope greater than or equal to 0.005 here: `Cc1cc(C)c2c(N)c(C(=O)c3ccccc3)oc2n1`
Output line: y

Input line: Would you say `CC(C)(C)c1ccc(O)c(N)c1` shows slope at minimum 0.005?
Output line: y

Input line: Identify whether the reported slope of the following molecule is 0.005 or greater: `CCOc1ccc(Cc2nc(N)nc(N)n2)cc1`
Output line: n

====

Provide the reported z-score of each item.
- assay-comment: DUSP6 inhibitors restoring Erk phosphorylation by chemical complementation, primary imaging in DUSP6-transfected HeLa (AID 609)
- test-context: HeLa MKP-3 transfected, phospho-Erk imaging KS statistic; measured here: cell density z-score; at 10 µM; cells stimulated with TPA for 15 min
Answers are plain numbers.

Parameters: items (list). Returns: z-score for each item.
1. CCOC(=O)c1c(C)n(C)c2ccc(OC)c(NC(=O)CCN3CCSCC3)c12
2. c1ccc(OCc2nn3c(-c4ccco4)nnc3s2)cc1
3. CCOc1cccc(-c2nnc3sc(C4CCCCC4)nn23)c1
4. CC1C/C=C/C=C/C=C/C=C/C(O[C@@H]2O[C@H](C)[C@@H](O)[C@H](N)[C@@H]2O)CC2OC(O)(CC(O)CC3OC3/C=C/C(=O)O1)CC(O)C2C(=O)O (stereo partly specified)
5. O=C(c1cccc(Cl)c1)N1CCN(C(=O)c2ccccc2F)CC1
6. N=c1nc(N2CCCCC2)cc(N)n1O
7. CSc1nc(N)c(C#N)c(-c2ccccc2Cl)c1C#N
8. Cc1cc(O)c(C(C)C)cc1N=C1CSC(=O)N1

Output line:
1: -2.21; 2: 2.72; 3: 1.83; 4: -0.528; 5: -0.228; 6: -0.689; 7: -2.2; 8: 0.698

Items follow; give z-score for each.
1. CC(=N\O)/C(CN(C)C)=N/O
2. CN1CCN(CC(=O)Nc2nc(-c3ccccc3)cs2)CC1
3. CCOc1c(C)cc2[nH]c(CCC(=O)O)nc2c1C

Output line:
1: 0.774; 2: -1.89; 3: 1.23

====

- assay-comment: DUSP6 inhibitors restoring Erk phosphorylation by chemical complementation, primary imaging in DUSP6-transfected HeLa (AID 609)
- test-context: HeLa MKP-3 transfected, phospho-Erk imaging KS statistic; measured here: cell density z-score; at 10 µM; cells stimulated with TPA for 15 min
Each entry gets Not met if its z-score stays under -0.3, and Met if its z-score is -0.3 or above.

Check out these entries, answers already filled in.
CC(=O)O[C@H]1C[C@@H]2CC[C@@H]3[C@H](CC[C@@]4(C)[C@H]3C[C@H]([N+]3(C)CCCCC3)[C@@H]4OC(C)=O)[C@@]2(C)C[C@@H]1[N+]1(C)CCCCC1 = Not met
Oc1ccc(Br)cc1CNn1cnnc1 = Met
CC[N+](C)(CC)CCOC(=O)C(O)(c1ccccc1)C1CCCCC1 (stereo not given) = Not met
COC(=O)c1ccc(=O)n(Cc2ccco2)c1 = Not met
C[C@H](CCC(=O)O)[C@H]1CC[C@H]2[C@@H]3C(=O)C[C@@H]4CC(=O)CC[C@]4(C)[C@H]3CC(=O)[C@]12C = Met
CCOc1ccc2c(C)nc(NC3=NC(C)(C)C=C(C)N3)nc2c1 = Not met
CCOC(=O)c1oc2cc(O)cc(C)c2c(=O)c1-c1cscn1 = Met

Input line: Test whether the molecule `c1ccc(-c2nnc3sc(Cc4cccs4)nn23)cc1` records z-score of -0.3 or higher.
Output line: Met

====

- target-under-test: Voltage-gated potassium channel subunit beta-2 (Rattus norvegicus)
- assay-comment: KvBeta enzyme negative modulators, primary screen, biochemical, NADPH fluorescence (AID 622);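 note: slope of raw intensity against log time taken from 70 to 1610 s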
- test-context: recombinant KvBeta, 4-cyanobenzaldehyde reduction, at 10 µM, stronger effect = higher value
experimental-endpoint: fluorescence slope
Numbers only.

A selection of reference data follows.
OC(CCCN1CCC(O)(c2ccc(Cl)cc2)CC1)c1ccc(F)cc1 (stereo not given) = -0.468
C[C@]12CC[C@@H]3c4ccc(O[C@@H]5O[C@H](C(=O)O)[C@@H](O)[C@H](O)[C@H]5O)cc4CC[C@H]3[C@@H]1C[C@@H](O)[C@@H]2O = -0.487

For every record below, what is its fluorescence slope?
1. COc1cc(-c2cc(C(F)(F)F)n3ncc(C(=O)O)c3n2)cc(OC)c1OC
2. COc1ccc(/C(O)=C2/C(=O)C(=O)N(CCCN(C)C)C2c2cccc(Cl)c2)cc1OC (stereo not given)
3. CSc1nc2sc3c(c2c(=O)[nH]1)CCC(C)C3 (stereo not given)
4. CCOC(=O)C1=C(C)NC(SCC(=O)Nc2nc(C)cs2)=C(C#N)C1c1cccs1 (stereo not given)
5. CC/C(C)=C1\SC(N2CCN(C(C)=O)CC2)=NC1=O
6. Cc1cccc(OCc2nc(C)cc(=O)[nH]2)c1
7. CCc1ccc(NC(=O)CSC2=C(C#N)C(c3ccco3)C3=C(CCCC3=O)N2)cc1 (stereo not given)

Output line:
1. -0.439
2. -0.393
3. -0.364
4. -0.472
5. -0.377
6. -0.409
7. -0.501

Input line: Given the compound `CCN(CC)CCOC(=O)C1(c2ccc(OC)c(OC)c2)CCCC1` , write its reported fluorescence slope.
Output line: -0.513

====

- assay-comment: inhibitors of Chlamydomonas gravitaxis, primary screen, whole organism, Chlamydomonas reinhardtii, WT vs cilia-less mutant, absorbance, 96-well (AID 463189);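 note: 0% = wild type cc124 cells in DMSO and 100% = ciliumless bld1 mutant cells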
- test-context: OD600 absorbance, 2 days, at 10 µM, stronger effect = higher value
Record form. Attribute: inhibition. Fill in for each entry.
Give bare numbers, in %.

c1csc(-c2nn3c(C4CCCCC4)nnc3s2)c1 = 13.7
Cn1c(SCC(=O)NCc2ccccc2)nc2ccccc21 = 26.1
O=C(C1=C(O)C(=O)N(c2ncccn2)C1c1cccc(Cl)c1)c1ccco1 (stereo not drawn) = 3.84
Cn1c(=O)c2c(nc(NCc3ccc4c(c3)OCO4)n2Cc2ccc(F)cc2)n(C)c1=O = 2.97

Here are 8 compounds. What values of inhibition were reported for them?
1. CCC(=O)N[C@@H]1CC(C(C)(C)NC(=O)CC)CC=C1C (stereo partly drawn)
2. N#Cc1ccc(-c2ccco2)nc1SCC(=O)c1ccc(Cl)cc1
3. COc1cccc(-c2nn3c(-c4ccccn4)nnc3s2)c1
4. CCCCNC(=O)N(C)c1nncnc1C(=O)NC
5. CCO/C(C)=N/n1c2nc3ccccc3nc2c2c(=O)n(CC(C)C)c(C)nc21
6. C[C@@H]1C[C@H](Nc2ccccc2)c2ccccc2N1C(=O)c1cccnc1
7. CCOCCSc1nc2c(c(=O)[nH]c(=O)n2C)n1CCCc1ccccc1
8. CC/C(=N\O)c1ccc(OC)c(OC)c1

Output line:
6.4
-1.61
65.3
-1.96
9.95
0.503
-2.75
13.3

====

- assay-comment: inhibitors of E-selectin induction by TNFa, primary screen, imaging, HUVEC, immunofluorescence, MLSMR starter and 10KST1 sets (AID 487);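 note: 100% = median nuclei count of all wells on the same plate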
- test-context: HUVEC TNFalpha-induced E-selectin immunofluorescence imaging, at 2 µM; measured here: cell number, toxicity
Task for the reader: assign each of the following compounds its reported nuclei count.
Give bare numbers, in %.

// known answers, use as guide
Cn1c(=O)c2c(nc(NCC(O)CO)n2CCc2ccccc2)n(C)c1=O (stereo unspecified) = 172
CC(NCCC(c1ccccc1)c1ccccc1)c1ccccc1 (stereo unspecified) = 113
COc1ccc2c(c1)[nH]c1c(=O)n(CCN(C)C)cnc12 = 135
Cc1ccc(N2C(=O)CC(N(O)C3CC(=O)N(c4ccc(C)cc4)C3=O)C2=O)cc1 (stereo unspecified) = 126

Okay, here is my list. What is nuclei count for each of these?
1. Cc1ccc(N2C(=O)[C@@H]3[C@H](C2=O)C2CCCN2[C@@H]3C(=O)c2ccccc2)cc1 (stereo partly specified)
2. Cc1cc(C)n(Cc2cc(C)c(Cn3nc(C)cc3C)cc2C)n1
3. COc1ccc(/C(O)=C2/C(=O)C(=O)N(CCCN(C)C)C2c2ccco2)cc1Cl (stereo unspecified)
4. Cc1c(NC(=O)c2coc(=O)c(Br)c2)c(=O)n(-c2ccccc2)n1C
5. Cc1ccc(CC2CC(=O)N(c3ccc4c(c3)OCCO4)C2=O)cc1 (stereo unspecified)
6. CC(=O)OCC[N+](C)(C)C
7. CCC(=O)N[C@@H]1CC(C(C)(C)NC(=O)CC)CC=C1C (stereo partly specified)
8. CN1C(=O)c2ccc(N(C)C)cc2C1=O

Output line:
1. 146
2. 137
3. 134
4. 113
5. 129
6. 102
7. 137
8. 175

Please supply nuclei count for each of the following items, keeping them in order.
1. COc1cccc(C2=CC(c3ccccc3)n3ncnc3N2)c1 (stereo unspecified)
2. COC(=O)C1=C(C)OC(N)=C(C#N)C1c1ccc(OC)c(OC)c1OC (stereo unspecified)
3. CN1CCCN=C1COC(=O)C(O)(c1ccccc1)C1CCCCC1 (stereo unspecified)
4. COc1cccc(OC)c1C(=O)N1CCN(S(=O)(=O)c2ccc(C)cc2)CC1
5. C=C(Br)Cn1c(CCCC)nc2ccccc21

Output line:
[163, 104, 127, 135, 145]

Dear colleague, could you send me nuclei count for each of the items below? Thanks.
1. O=C1C(=O)N(CCN2CCOCC2)C(c2ccccn2)/C1=C(/O)c1ccccc1 (stereo unspecified)
2. Brc1c(NC2=NCCN2)ccc2nccnc12
3. Cc1cc(C)n(CC(=O)n2nc(C)cc2C)n1
4. CCc1[nH]nc2c1C(c1ccc(Br)s1)C(C#N)=C(N)O2 (stereo unspecified)
5. CCC(=O)Nc1cc(-c2nn(C)c(=O)c3ccccc23)ccc1N1CCCCC1
6. CCCCOc1ccc(C(=O)CCN2CCCCC2)cc1
7. c1ccc(-c2nc(NCC3CCCO3)c3ccccc3n2)nc1 (stereo unspecified)
8. CC(C)Oc1ccc(/C(O)=C2/C(=O)C(=O)N(CCN3CCOCC3)C2c2ccccc2)cc1 (stereo unspecified)

Output line:
[107, 120, 81.7, 152, 161, 114, 173, 179]

Give nuclei count for each of the items listed below.
1. Cc1cccc(N(C)C(=S)Oc2ccc3ccccc3c2)c1
2. CC(C(=O)N1CCOCC1)N1C(=O)c2ccccc2C1=O (stereo unspecified)
3. COc1ccc(C(=O)/C=C/Nc2cccc(C)n2)cc1OC
4. CCCCNC(=O)N(C)c1nncnc1C(=O)NC
5. CC(C)OC(=O)C(C)(C)Oc1ccc(C(=O)c2ccc(Cl)cc2)cc1
6. COCCOC(=O)C1=C(C)OC(N)=C(C#N)C1c1ccco1 (stereo unspecified)

Output line:
1: 117; 2: 96; 3: 164; 4: 191; 5: 97.2; 6: 165
